Values were extracted from ChEMBL document CHEMBL1144413.

What IC50 was measured for each of the following?
# tgt: UniProt:P15121
# test: In vitro inhibition of recombinant human aldose reductase expressed in Escherichia coli
Numeric only. Scale: nM

In: Can you look up the measured IC50 of O=C(O)Cn1cc(Cc2nc3cccc(F)c3s2)c2ccccc21 for me?
Out: 55

In: Let us now turn to O=C(O)Cn1c(=O)n(Cc2ccc(Br)cc2F)c(=O)c2ccc(Cl)cc21
Out: 8

In: # iterate: COc1ccc2c(c1)c(Cc1nc3c(F)c(F)cc(F)c3s1)cn2CC(=O)O
Out: 8

In: And for Cc1ccc2c(c1)c(Cc1nc3cc(C(F)(F)F)ccc3s1)cn2CC(=O)O ?
Out: 100

In: Input O=C(O)Cn1cc(Cc2nc3cc(C(F)(F)F)ccc3s2)c2cc(Cl)ccc21
Out: 130
